The measured values listed here are drawn from ChEMBL document CHEMBL3352452.

tested on: P-gp; experiment: Efflux ratio of permeability across pig LLC-PK1 cells stably over-expressing rat P-gp at 5 uM; assay type: ADME, cell-based, Sus scrofa

{"lineNotation": "COc1cc(Nc2ncc(C(C)(C)O)cc2-c2nc(C)nc(N)n2)cnc1OC", "efflux ratio at 5 µM": 25}

----------
assay: Terminal half life in Sprague-Dawley rat at 1 mg/kg, iv and 2 mg/kg, po; assay type: ADME, organism-based; details: in vivo, read-out: beta t1/2 (converted)
Attribute: half-life

{"lineNotation": "COc1ncc(Nc2ncc(C(C)(C)O)cc2-c2nc(C)nc(N)n2)cc1F", "unitName": "h", "half-life": 3.1}
{"lineNotation": "COc1cc(Nc2ncc(C(C)(C)O)cc2-c2nc(C)nc(N)n2)cnc1OC", "unitName": "h", "half-life": 4.8}
{"lineNotation": "COc1ncc(Nc2ncc([C@@H](C)N3CCN(S(C)(=O)=O)CC3)cc2-c2nc(C)nc(N)n2)cc1F", "unitName": "h", "half-life": 3.3}
